target: Rat brain protein farnesyltransferase (Rattus norvegicus, UniProt Q02293+Q04631); construct: Rat brain protein farnesyltransferase activity is measured; from tissue; host or cells: rat brain; assay: % inhibition of farnesylation, scintillation proximity assay with biotin-K Ras B fragment; format: biochemical; conditions: Table 2; 1 × 10^-6 M
value.kind: % inhibition at 1 × 10^-6 M (%)
Give just the number in %; leave the unit off.

**Query** Return the recorded % inhibition at 1 × 10^-6 M value; entry: CCSC[C@H](CC1CCCCC1)NCc1ccc(C(=O)N[C@@H](CCSC)C(=O)OCOC(=O)C(C)(C)C)c(-c2ccccc2C)c1 [Example 764]
**Result** 88

**Query** Return the recorded % inhibition at 1 × 10^-6 M value; entry: CSCC[C@H](NC(=O)c1ccc(/C=C/c2cnc(Oc3ccccc3)cn2)cc1-c1ccccc1C)C(=O)O [Example 812]
**Result** 94

**Query** Return the recorded % inhibition at 1 × 10^-6 M value; entry: CSCC[C@H](NC(=O)c1ccc(CN(Cc2ccccc2)c2ccccc2)cc1-c1ccccc1C)C(=O)O [Example 406]
**Result** 95

**Query** Return the recorded % inhibition at 1 × 10^-6 M value; entry: CSCC[C@H](NC(=O)c1ccc(C=CCc2ccccc2)cc1-c1ccccc1C)C(=O)O [Example 469]
**Result** 92

**Query** Return the recorded % inhibition at 1 × 10^-6 M value; entry: CSCC[C@H](NC(=O)c1ccc(CN(C(=O)OC(C)(C)C)C(CC2CCCCC2)CC2CCCCC2)cc1-c1ccccc1C)C(=O)O [Example 886]
**Result** 35

**Query** Return the recorded % inhibition at 1 × 10^-6 M value; entry: CSCC[C@H](NC(=O)c1ccc(NC(=O)C2CCC(=O)N2)cc1-c1ccccc1)C(=O)O (stereo partly shown) [Example 202]
**Result** 31

**Query** Return the recorded % inhibition at 1 × 10^-6 M value; entry: CSCC[C@H](NC(=O)c1ccc(CN(C2CC2)C2(CC3CCCCC3)CCC2)cc1-c1ccccc1C)C(=O)O [Example 330]
**Result** 98

====

target: Rat brain protein farnesyltransferase (Rattus norvegicus, UniProt Q02293+Q04631); construct: Rat brain protein farnesyltransferase activity is measured; from tissue; host or cells: rat brain; assay: % inhibition of farnesylation, scintillation proximity assay with biotin-K Ras B fragment; assay type: biochemical; conditions: read-out: % inhibition at 0.01 μM (**); Table 6; ** footnote 0.01 μM (title: 0.01 mM)
Counter-ions that a name gives are not always drawn.
value.kind: inhibition at 0.01 µM (%)
Give just the number in %; leave the unit off.

**Query** Return the recorded inhibition at 0.01 µM value; entry: CCCOC[C@H](CC1CCCCC1)OCc1ccc(C(=O)N[C@@H](CCSC)C(=O)O)c(-c2ccccc2C)c1 [Example 1305, Lithium Salt]
**Result** 91

**Query** Return the recorded inhibition at 0.01 µM value; entry: CSCC[C@H](NC(=O)c1ccc(COC(CC2CCCCC2)c2scnc2C)cc1-c1ccccc1C)C(=O)O (stereo partly drawn) [Example 1097, lithium salt]
**Result** 80

**Query** Return the recorded inhibition at 0.01 µM value; entry: CSCC[C@H](NC(=O)c1ccc(CO[C@H](COC(C)(C)C)CC2CCCCC2)cc1-c1ccccc1C)C(=O)O [Example 1307, Lithium Salt]
**Result** 85

Recorded values, source patent US6204293A.
